Assay: SPR (Biacore) Protein A mAb capture, Compound A injected
Conditions: 37° C., binding to Compound A, apparent affinity, for rank ordering only, read-out: KD
quantity-name: Kd (nM)
Note: unit nM is implicit; provide only the numeric part.

// fetch Kd given entry 26D5-296-F07-mAb: human IgG1f/kappa mAb; VH SEQ ID NO: 71, VL SEQ ID NO: 94 (antibody, V domains shown) VH: EVQLVESGGGLIQPGGSLRLSCAASGFTVSSNYMSWVRQAPGKGLEWVSFIYSGGRTYYADSVKGRFTISRDNSKNTLYLQMNSLRAEDTAVYYCARAGFGGGDYWGQGTLVTVSS VL: DIQMTQSPSSVSASVGDRVTITCRASQYISSNLAWYQQKPGKAPKLLIYAASSLQSGVPSRFSGSGSGTDFTLTISSLQPEDFATYYCQQANSFPLTFGGGTKVEIK
0.58

Reference source: patent US12065505B2
